Data origin, for the record: PubChem BioAssay

Assay: inhibitors of poly I:C-induced TLR3 signaling, primary screen, cell-based, poly I:C stimulus, luciferase, 10K MLSCN set (AID 602277)
Conditions: HEK293-TLR3 RL24 IRF3 luciferase reporter, at 10 µM, hits give high values
Classify by measured inhibition: satisfied if it is equal to or exceeds 40%, not satisfied if it is smaller.

Problem: Is inhibition at least 40%? Consider `Nc1ccc(S(=O)(=O)NC(=O)c2ccccc2)cc1`
Solution: not satisfied

Problem: Can `Cc1cc(C)nc(NC2=NCC(=O)N2c2ccc(Cl)cc2)n1` be said to have inhibition at or above 40%?
Solution: not satisfied

Problem: State whether the measured inhibition reaches 40%, counting equality as reaching it, for `NC(=O)OCC(COC(N)=O)c1ccccc1`
Solution: not satisfied

Problem: Quick check: does `CCN(CC)C(=O)c1sc2nc(-c3cccs3)cc(-c3cccs3)c2c1N` have inhibition greater than or equal to 40%?
Solution: not satisfied

Problem: Is inhibition for COc1cccc(N2CCN(c3ncnc4c3[nH]c3ccc(F)cc34)CC2C)c1 (stereo unspecified) at or above 40%?
Solution: satisfied

* * *

Experiment: inhibitors of larval lipid processing in zebrafish, primary screen, whole organism, PED6 fluorescence, gall bladder and intestine (AID 686);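 further: larvae 5 to 7 days old with five fish per well; signal comes from phospholipase A2 cleavage of quenched PED6 carried via bile; overnight exposure to compound and PED6 before scoring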
Conditions: Zebrafish larvae PED6 lipid processing, fluorescence scoring; screened at 20 µM (by protocol)
Active and inactive are the calls of the source.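 Rule for the calls: active = a full or partial loss of lipid-probe fluorescence in the fish gall bladder, intestine or both, judged by eye; inactive = no fluorescence loss, or compound toxic to the fish.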
assay_endpoint: outcome

Illustrative cases are given below, each with its answer.
compound	outcome
CCCCn1c(C)cc2cc(O)ccc21	inactive
Cc1cccc(C)c1OCC(O)CNS(=O)(=O)c1ccccc1C(=O)N1CCOCC1 (configuration not stated)	inactive
CCOC(=O)C1(C(=O)OCC)C(c2ccccc2)CC(O)N1C(C)=O (configuration not stated)	inactive
COC(=O)c1ccc(=O)n(Cc2ccc3c(c2)OCO3)c1	inactive

Problem: Tell me the measured outcome of C=CCNC(=O)C(C#N)c1nc2ccccc2nc1N1CCCCCC1 (configuration not stated) , please.
Solution: inactive

Problem: Entry under review: `CCOC(=O)c1n[nH]c2ccccc12` . Reported outcome?
Solution: inactive

Problem: Field request: outcome | item: `CSC1=Nc2sc3c(c2C2=NCCN12)CC(C)(C)OC3`
Solution: inactive

Problem: Would you kindly share the measured outcome for `C=C(Br)Cn1c(CCCC)nc2ccccc21` ?
Solution: inactive

Problem: Fill in the blank: the reported outcome of `O=c1c(-c2ccc3c(c2)OCCO3)c(C(F)(F)F)oc2cc(O)cc(O)c12` is ____.
Solution: inactive

Problem: Can you look up the measured outcome of `COc1cccc(OC)c1-c1nn2c(-c3ccccc3Cl)nnc2s1` for me?
Solution: inactive

Problem: So what does the record say about outcome for O=C(C1CC1(c1ccccc1)c1ccccc1)N1CCOCC1 (configuration not stated) ?
Solution: inactive

Problem: Tell me the measured outcome of O=C(NC1CCS(=O)(=O)C1)N1CCCCC1 (configuration not stated) , please.
Solution: inactive

* * *

Quick reference for inhibition among some molecules
Target: Dual specificity protein phosphatase 6 (Homo sapiens) (UniProt Q16828)
Sequence (Q16828 whole entry, looked up): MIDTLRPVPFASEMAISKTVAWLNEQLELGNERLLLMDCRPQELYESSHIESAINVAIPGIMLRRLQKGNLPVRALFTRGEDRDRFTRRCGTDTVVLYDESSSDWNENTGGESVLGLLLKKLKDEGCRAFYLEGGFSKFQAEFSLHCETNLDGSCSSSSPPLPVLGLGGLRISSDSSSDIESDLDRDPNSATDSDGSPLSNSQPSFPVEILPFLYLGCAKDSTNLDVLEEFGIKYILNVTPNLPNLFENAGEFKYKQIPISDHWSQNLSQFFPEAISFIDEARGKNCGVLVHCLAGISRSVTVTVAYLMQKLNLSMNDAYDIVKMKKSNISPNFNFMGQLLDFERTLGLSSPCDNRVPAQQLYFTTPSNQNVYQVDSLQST
Test: DUSP6 inhibitors restoring Erk phosphorylation by chemical complementation, primary imaging in DUSP6-transfected HeLa (AID 609);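 further: phospho-Erk level distribution per well compared with pooled transfected vehicle control wells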
Conditions: HeLa MKP-3 transfected, phospho-Erk imaging KS statistic; at 10 µM; hits give high values; cells stimulated with TPA for 15 min
Calls of active or inactive are those of the source.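 Rule for the calls: active = compounds giving at least 50% inhibition in the cell-based MKP-3 phosphatase rescue imaging test; inactive = the rest.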

Some entries whose results are on file:
molecule	inhibition
CC1(C)CC(=O)C2=C(C1)N(Cc1ccco1)C(=O)C2(O)C(F)(F)F (centres undefined)	-12.3% (inactive)
CCOC(=O)C(C)Oc1nc(Oc2ccccc2)nc(N(C)C)n1 (centres undefined)	-7.79% (inactive)
OCCOCCNc1ncnc2c1cnn2-c1ccccc1	16.8% (inactive)
COc1ccc(CNc2oc(COc3ccccc3Cl)nc2C#N)cc1	3.5% (inactive)
Cn1c([N+](=O)[O-])cnc1COC(N)=O	1.48% (inactive)
Cc1nc(NCc2ccccc2)c(C(N)=O)c2c1COC(C)(C)C2	9.39% (inactive)
C=CCOC(=O)C1=C(C)OC(N)=C(C#N)C1c1ccoc1 (centres undefined)	2.46% (inactive)
CN(C)CCCN1C(=O)C(O)=C(C(=O)c2cc3ccccc3o2)C1c1ccccc1 (centres undefined)	6.04% (inactive)

Problem: Given the entry `O=c1[nH]c(=O)n(Cc2ccco2)c2c1C(C(F)(F)F)(C(F)(F)F)N=C(c1ccco1)N2` , what inhibition was observed with Dual specificity protein phosphatase 6 (Homo sapiens) (UniProt Q16828)?
Solution: 1.75% (inactive)

Problem: What inhibition appears in the records for this molecule with Dual specificity protein phosphatase 6 (Homo sapiens) (UniProt Q16828)? CCCOc1ccc(/C(O)=C2/C(=O)C(=O)N(CCCN3CCOCC3)C2c2ccncc2)cc1 (centres undefined)
Solution: -8.27% (inactive)

Problem: What reported inhibition corresponds to CN(C)c1ccc(O)c2c1CC1CC3[C@@H](N(C)C)C(=O)C(C(N)=O)=C(O)[C@]3(O)C(=O)C1=C2O (some centres undefined) on Dual specificity protein phosphatase 6 (Homo sapiens) (UniProt Q16828)?
Solution: 1.48% (inactive)

Problem: Test system Dual specificity protein phosphatase 6 (Homo sapiens) (UniProt Q16828); read-out inhibition; what value for `O=c1/c(=C\c2cccn2-c2ccccc2)sc2nc3ccccc3n12` ?
Solution: 3.56% (inactive)

Problem: // map `CCOC(=O)N1CCN(C(=O)c2cn(CC)c3cc(N4CCN(C)CC4)c(F)cc3c2=O)CC1` to recorded inhibition (system: Dual specificity protein phosphatase 6 (Homo sapiens) (UniProt Q16828))
Solution: -7.28% (inactive)

Problem: Fill in the recorded inhibition for this molecule, with Dual specificity protein phosphatase 6 (Homo sapiens) (UniProt Q16828) as test system: `COc1ccc2[nH]c3c(N4CCN(Cc5ccc6c(c5)OCO6)CC4)ncnc3c2c1`
Solution: 0.671% (inactive)

Problem: Which inhibition is reported with Dual specificity protein phosphatase 6 (Homo sapiens) (UniProt Q16828) for this entry: `CCC(NC(=O)Nc1cc(OC)c(OC)c(OC)c1)(C(F)(F)F)C(F)(F)F` ?
Solution: 1.9e-07% (inactive)
